Target: gEgI WT: HSV2 gEgI heterodimer comprising gE and gI wildtype ectodomains (HSV2, UniProt P89475 21-416; P06764 21-256)
Assay: SPR binning; gEgI captured by mAb 40
Collected RU values appear next to each entry.
measurement.type: RU (RU)

- binder: "mAb clone 40 (antibody, V domains shown) VH: QIQLVQSGPELKKPGETVKISCKASGYTFTNYGMNWVKQAPGKGLKWMGWINTYTGEPTYADDFKGRFAFSLETSASTAYLQINNLKNEDTATYFCARSLYGYDEGYFDVWGAGTTVTVSS VL: DIQMTQSPASLSASVGETVTITCRASGNIHNYLAWYQQKQGKSPQLLVYNAKTLADGVPSRFSGSGSGTQYSLKINSLQPEDFGSYYCQHFWSTPYTFGGGTKLEIK"
  measured.number: 2.6
- binder: "mAb clone 15 (antibody, V domains shown) VH: QVQLKESGPGLVAPSQSLSITCTVSGFSLTSYGVSWVRQPPGKGLEWLGVIWGDGSTNYHSALISRLSISKDNSKSQVFLKLNSLQTDDTATYYCAKPDLYYDSPYAMDYWGQGTSVTVSS VL: DIQMTQSPASLSASVGETVTITCRASGNIHNYLAWYQQKQGKSPQLLVYNAKTLADGVPSRFSGSGSGTQYSLKINSLQPEDFGSYYCQHFWSTPWTFGGGTKLEIK"
  measured.number: 6.9
- binder: "mAb clone 17 (antibody, V domains shown) VH: QVQLKESGPGLVAPSQSLSITCTVSGFSLTSYGVHWVRQPPGKGLEWLGVIWAGGSSNYNSALMSRLSISKDNSKSQVFLKMNSLQTDDTAMYYCARDGYGYVYYAMDYWGQGTSVTVSS VL: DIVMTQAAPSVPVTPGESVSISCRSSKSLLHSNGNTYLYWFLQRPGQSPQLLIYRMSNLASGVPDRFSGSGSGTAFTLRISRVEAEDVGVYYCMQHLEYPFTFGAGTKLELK"
  measured.number: -2.4
